assay: A quantitative high throughput screen for small molecules that induce DNA re-replication in SW480 colon adenocarcinoma cells.; also: nearly all actives have a fitted effect of over 55% in size; conditions: Hoechst DNA content imaging, 48 h; series mostly up to 46.1 µM
Screen size: about 340,000 compounds; about 6,200 (1.8%) were called active. About 10% were inconclusive and are not listed. Calls follow the shape of the dose curve; as a rule, active = well fitted activation curve with a large enough effect; inconclusive = small, poorly fitted or top-dose-only effect; inactive = no such curve, though single readings can be large or run the other way. Many of the other results were omitted from the sample, so actives are more common in it than they were.
Possible outcomes: active, inactive

>>> df
                                    molecule  classlabel
 0  CCCCN1CC(COCc2ccccc2)OCCS1(=O)=O (stereo not given)    inactive
 1  CC(=O)N(O)CCCCCNC(=O)CCC(=O)N(O)CCCCCNC(=O)CCC(=O)N(O)CCCCCNC(=O)CCC(=O)O    inactive
 2  COc1ccc(/C=C2\SC(=S)N(CCC(=O)Nc3ccccn3)C2=O)cc1OC    inactive
 3  COc1ccc(/C=C/C(=O)OCC(=O)NC2CCCCCC2)cc1OC    inactive
 4     O=C1C=C(c2ccc(Cl)cc2)C(=O)N1Nc1ccccc1      active
 5  NC(=S)NN=C1CCCC(C(F)(F)F)C1 (stereo not given)    inactive
 6  COc1ccc2sc(-c3ccc(S(C)(=O)=O)cc3)c(C#Cc3cncn3C)c2c1      active
 7   CC(=O)Nc1ccc(NC(=O)COc2ncnc3ccccc23)cc1    inactive
 8  O=C1COc2ccc(C(=O)COC(=O)CCOc3ccccc3)cc2N1    inactive
 9  Cc1noc(C)c1NC(=O)Nc1ccc2c(c1)C(=O)N([C@H](C)CO)C[C@H](C)[C@@H](CN(C)C(=O)Nc1ccc(C(F)(F)F)cc1)O2    inactive
10  COCCCN1C(=O)C(=O)/C(=C(/O)c2ccc3c(c2)CC(C)O3)C1c1cccnc1 (stereo not given)    inactive
11  Cc1ccc(OCCNC(=O)c2cccc(S(=O)(=O)N3CCN(Cc4ccccc4)CC3)c2)cc1    inactive
12      CC(C)(C)OC(=O)NNc1c2ccccc2nc2ccccc12    inactive
13  COCCN(C(=O)C(C)N1C(=O)c2ccccc2C1=O)c1c(N)n(CC(C)C)c(=O)[nH]c1=O (stereo not given)    inactive
14                 C(#CCN1CCOCC1)CCCN1CCOCC1    inactive
